The sequences listed here are annotated with their binding signal.
Biological target: MBP-FoxP3dN (Mus musculus, UniProt Q99JB6 188-423)
Sequence: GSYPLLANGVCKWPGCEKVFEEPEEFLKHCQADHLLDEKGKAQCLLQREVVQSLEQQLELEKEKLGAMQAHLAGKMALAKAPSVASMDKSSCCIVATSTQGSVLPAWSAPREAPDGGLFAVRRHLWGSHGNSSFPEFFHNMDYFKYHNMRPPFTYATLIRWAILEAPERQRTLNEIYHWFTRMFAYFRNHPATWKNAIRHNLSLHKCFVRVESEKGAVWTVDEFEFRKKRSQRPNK
Assay: PD-seq (MBP pull-down with sequencing); 20 mM Tris-HCl pH 7.5, 100 mM NaCl, 1.5 mM MgCl2, 0.4 uM protein, 0.1 uM dsDNA library, 30 min, room temperature, amylose pull-down; high values mean tight binding
Conditions: protein: recombinant; tags: His6-MBP; chain copies: 2; dsDNA, one strand shown
In all, about 16,000 sequences were measured (“rpm ratio (pull-down/input)”: median about 0.5, highest 2% from about 5.5 on). The sample as a whole holds a higher share of the highest values than the screen did.

# polymer.sequence, target.system, binding signal
rows = [
    ("GATGATTGTTCTCCCAGCTGATGAATTGTTAACTTCGAGTAAACAAATTTTCCTAATCTTTCTGTTCAAGCGCCATCTAC", "MBP-FoxP3dN (Mus musculus, UniProt Q99JB6 188-423)", "0.587 RPM ratio (pull-down/input)"),
    ("GATGATTGTTCTCCCAGCTGATGAATTGTGAGGCTCGAGTAAACAAATTTTCCTAATCTTTCTGTTCAAGCGCCATCTAC", "MBP-FoxP3dN (Mus musculus, UniProt Q99JB6 188-423)", "0.816 RPM ratio (pull-down/input)"),
    ("GATGATTGTTCTCCCAGCTGATGAATTGGCCCTCTCGAGTAAACAAATTTTCCTAATCTTTCTGTTCAAGCGCCATCTAC", "MBP-FoxP3dN (Mus musculus, UniProt Q99JB6 188-423)", "0.358 RPM ratio (pull-down/input)"),
    ("GATGATTGTTCTCCCAGCTGATGAATTCGTATCGTCGAGTAAACAAATTTTCCTAATCTTTCTGTTCAAGCGCCATCTAC", "MBP-FoxP3dN (Mus musculus, UniProt Q99JB6 188-423)", "1.53 RPM ratio (pull-down/input)"),
]

###

Biological target: MBP-FoxP3dN (Mus musculus, UniProt Q99JB6 188-423)
Sequence: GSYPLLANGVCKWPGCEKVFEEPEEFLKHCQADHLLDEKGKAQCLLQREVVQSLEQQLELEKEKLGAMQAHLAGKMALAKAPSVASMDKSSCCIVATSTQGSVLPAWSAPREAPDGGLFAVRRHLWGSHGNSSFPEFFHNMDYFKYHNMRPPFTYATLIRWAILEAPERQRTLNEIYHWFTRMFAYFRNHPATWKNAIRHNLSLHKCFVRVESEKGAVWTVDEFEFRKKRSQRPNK
Assay: PD-seq (MBP pull-down with sequencing); 20 mM Tris-HCl pH 7.5, 100 mM NaCl, 1.5 mM MgCl2, 0.4 uM protein, 0.1 uM dsDNA library, 30 min, room temperature, amylose pull-down; high values mean tight binding
Settings: protein: recombinant; tags: His6-MBP; chain copies: 2; dsDNA, one strand shown
Whole data set: some 16,000 sequences, median “rpm ratio (pull-down/input)” near 0.5, cut for the highest 2% near 5.5. The list comes from a sample in which the highest values are over-represented; it also holds close analogues and randomly drawn sequences.

# polymer.sequence, binding signal
measured = [
    ("GATGATTGTTCTCCCAGCTGATGAATTTCGTCAATCGAGTAAACAAATTTTCCTAATCTTTCTGTTCAAGCGCCATCTAC", "0.411 RPM ratio (pull-down/input)"),
    ("GATGATTGTTCTCCCAGCTGATGAATTCCACCTATCGAGTAAACAAATTTTCCTAATCTTTCTGTTCAAGCGCCATCTAC", "0.432 RPM ratio (pull-down/input)"),
    ("GATGATTGTTCTCCCAGCTGATGAATTTATTGTCTCGAGTAAACAAATTTTCCTAATCTTTCTGTTCAAGCGCCATCTAC", "6.72 RPM ratio (pull-down/input)"),
    ("GATGATTGTTCTCCCAGCTGATGAATTTTTTTACTCGAGTAAACAAATTTTCCTAATCTTTCTGTTCAAGCGCCATCTAC", "0.35 RPM ratio (pull-down/input)"),
    ("GATGATTGTTCTCCCAGCTGATGAATTATTTTACTCGAGTAAACAAATTTTCCTAATCTTTCTGTTCAAGCGCCATCTAC", "0.529 RPM ratio (pull-down/input)"),
    ("GATGATTGTTCTCCCAGCTGATGAATTGAATTACTCGAGTAAACAAATTTTCCTAATCTTTCTGTTCAAGCGCCATCTAC", "1.28 RPM ratio (pull-down/input)"),
    ("GATGATTGTTCTCCCAGCTGATGAATTTTGTTACTCGAGTAAACAAATTTTCCTAATCTTTCTGTTCAAGCGCCATCTAC", "3.84 RPM ratio (pull-down/input)"),
    ("GATGATTGTTCTCCCAGCTGATGAATTTATTTACTCGAGTAAACAAATTTTCCTAATCTTTCTGTTCAAGCGCCATCTAC", "6.74 RPM ratio (pull-down/input)"),
    ("GATGATTGTTCTCCCAGCTGATGAATTGTGGACCTCGAGTAAACAAATTTTCCTAATCTTTCTGTTCAAGCGCCATCTAC", "0.571 RPM ratio (pull-down/input)"),
    ("GATGATTGTTCTCCCAGCTGATGAATTCGGTCATTCGAGTAAACAAATTTTCCTAATCTTTCTGTTCAAGCGCCATCTAC", "0.728 RPM ratio (pull-down/input)"),
    ("GATGATTGTTCTCCCAGCTGATGAATTTGGCGACTCGAGTAAACAAATTTTCCTAATCTTTCTGTTCAAGCGCCATCTAC", "1.79 RPM ratio (pull-down/input)"),
    ("GATGATTGTTCTCCCAGCTGATGAATTATTTGTCTCGAGTAAACAAATTTTCCTAATCTTTCTGTTCAAGCGCCATCTAC", "2.46 RPM ratio (pull-down/input)"),
    ("GATGATTGTTCTCCCAGCTGATGAATTGAATGATTCGAGTAAACAAATTTTCCTAATCTTTCTGTTCAAGCGCCATCTAC", "0.737 RPM ratio (pull-down/input)"),
    ("GATGATTGTTCTCCCAGCTGATGAATTAGACTTGTCGAGTAAACAAATTTTCCTAATCTTTCTGTTCAAGCGCCATCTAC", "0.529 RPM ratio (pull-down/input)"),
    ("GATGATTGTTCTCCCAGCTGATGAATTAGGTCCTTCGAGTAAACAAATTTTCCTAATCTTTCTGTTCAAGCGCCATCTAC", "0.354 RPM ratio (pull-down/input)"),
]
